Tested on: subgenomic HCV replicon in Huh-7 cells
PROTOCOL: Cell-Based HCV Replication Assay (replicon, NS3 Cell-ELISA)
Parameters: species or system hepatitis C virus (HCV)
PARTICULARS: Huh-7 cells with subgenomic HCV replicon; NS3 expression by Cell-ELISA; 96 hours incubation; read-out: Cell based HCV Replication Assay-IC50
READOUT_LABEL: IC50 (nM)
Hi! Could you send only the number? It should be in nM, unit omitted.

# IC50 of `CC[C@@H]1C[C@]1(NC(=O)[C@@H]1C[C@@H]2CN1C(=O)[C@H](C1CCCC1)NC(=O)N1CC[C@@H](C1)OCCCCCc1cc3ccc(OC)cc3nc1O2)C(=O)NS(=O)(=O)C1CC1` = 15

----------
As shown below, each of these compounds has a reported pIC50 value.
System: subgenomic HCV replicon in Huh-7 cells
PROTOCOL: Cell-Based HCV Replication Assay (replicon, NS3 Cell-ELISA)
Parameters: species or system hepatitis C virus (HCV)
PARTICULARS: Hepatitis C virus; Huh-7 cells with subgenomic HCV replicon; NS3 expression by Cell-ELISA; 96 hours incubation; read-out: Cell based HCV Replication Assay-IC50
// field semantics: pIC50 = negative decimal log of concentration (mol/L)

Worked set:
| COMPOUND | EXPERIMENTAL_SYSTEM | pIC50 |
| --- | --- | --- |
| C=C[C@@H]1C[C@]1(NC(=O)[C@@H]1C[C@@H]2CN1C(=O)[C@H](C1CCCC1)NC(=O)N1CC[C@H](COCCCc3nc4ccc(OC)cc4cc3O2)C1)C(=O)NS(=O)(=O)C1CC1 | subgenomic HCV replicon in Huh-7 cells | 8.15 |
| C=C[C@@H]1C[C@]1(NC(=O)[C@@H]1C[C@@H]2CN1C(=O)[C@H](C1CCCCC1)NC(=O)N1CCC[C@H](C1)OCCCc1cc3c(cc(-c4ccccc4)nc3cc1OC)O2)C(=O)NS(=O)(=O)C1CC1 | subgenomic HCV replicon in Huh-7 cells | 8.30 |
| C=C[C@@H]1C[C@]1(NC(=O)[C@@H]1C[C@@H]2CN1C(=O)[C@H](C1CCCC1)NC(=O)N1CC[C@@H](C1)OCCC/C=C/c1cc3ccccc3cc1O2)C(=O)NS(=O)(=O)C1CC1 | subgenomic HCV replicon in Huh-7 cells | 8.40 |
| C=C[C@@H]1C[C@]1(NC(=O)[C@@H]1C[C@@H]2CN1C(=O)[C@H](C1CCCC1)NC(=O)N1CC[C@@H](C1)OC/C=C/Cn1cc(C)c3c4ccccc4nc(c31)O2)C(=O)NS(=O)(=O)C1CC1 | subgenomic HCV replicon in Huh-7 cells | 8.15 |

Now look at this one.
# pIC50 of C=C[C@@H]1C[C@]1(NC(=O)[C@@H]1CC2CN1C(=O)[C@H](C1CCCC1)NC(=O)N1CCCC(C1)OC/C=C/Cn1cc(C)c3c4ccccc4nc(c31)O2)C(=O)NS(=O)(=O)C1CC1 (stereo in doubt) = 8.30
